# TESTED_TARGET: aryl hydrocarbon receptor (AHR) (Homo sapiens)
# Sequence (P35869 11-848): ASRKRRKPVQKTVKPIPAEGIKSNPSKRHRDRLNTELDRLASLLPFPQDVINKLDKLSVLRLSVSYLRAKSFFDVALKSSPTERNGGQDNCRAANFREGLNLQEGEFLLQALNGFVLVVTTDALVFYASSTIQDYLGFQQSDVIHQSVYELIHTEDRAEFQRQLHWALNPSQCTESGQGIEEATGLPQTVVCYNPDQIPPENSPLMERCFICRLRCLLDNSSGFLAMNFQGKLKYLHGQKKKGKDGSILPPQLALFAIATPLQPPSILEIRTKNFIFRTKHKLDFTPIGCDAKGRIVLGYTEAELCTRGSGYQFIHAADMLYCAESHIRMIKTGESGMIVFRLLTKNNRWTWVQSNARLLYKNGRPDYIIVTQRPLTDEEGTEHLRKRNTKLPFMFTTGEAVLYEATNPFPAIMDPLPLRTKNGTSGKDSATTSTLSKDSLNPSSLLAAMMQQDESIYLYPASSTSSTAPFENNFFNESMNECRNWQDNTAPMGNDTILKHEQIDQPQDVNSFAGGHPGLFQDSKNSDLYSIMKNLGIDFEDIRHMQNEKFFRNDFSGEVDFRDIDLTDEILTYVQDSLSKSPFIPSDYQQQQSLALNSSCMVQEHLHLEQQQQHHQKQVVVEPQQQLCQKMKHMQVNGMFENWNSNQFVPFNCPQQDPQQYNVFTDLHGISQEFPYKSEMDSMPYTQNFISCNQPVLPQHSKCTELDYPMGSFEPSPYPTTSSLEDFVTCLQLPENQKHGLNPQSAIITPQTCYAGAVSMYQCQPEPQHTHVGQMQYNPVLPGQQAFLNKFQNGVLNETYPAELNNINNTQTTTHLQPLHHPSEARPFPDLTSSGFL
# ASSAY_INFO: DRE-Luciferase reporter high-throughput screen (AHR antagonist, VAF347-activated)
pIC50: −log10 of the molar value.
Give measured pIC50 for each item. Keep answers brief.

Bench note, aryl hydrocarbon receptor (AHR) (Homo sapiens): CCOC(=O)c1c(N)sc(C(=O)Nc2cccc(C(F)(F)F)c2)c1C [20A] , pIC50 reads 5.70 to 6.00

pIC50 for aryl hydrocarbon receptor (AHR) (Homo sapiens) with input Cc1nc(-c2ccc(OC3=CC=C4N=NC(C(F)(F)F)N4N3)cc2)no1 (centres unmarked) [124A] equals < 5.70

aryl hydrocarbon receptor (AHR) (Homo sapiens) pIC50 of CC(C)C(=O)Nc1ccc2c(c1)C(=O)c1c-2nn(C)c1C(C)(C)C is 6.00 to 6.30

Form field, pIC50 with aryl hydrocarbon receptor (AHR) (Homo sapiens), item Cc1ccc(Cl)cc1-n1ccc2nc(N3CCCCC3)ncc2c1=O : 6.00 to 6.30

Measured on aryl hydrocarbon receptor (AHR) (Homo sapiens), Cc1nc(-c2ccccc2)sc1C(=O)N/N=C/c1cc2ccccc2o1 has a documented pIC50 of 6.30 to 6.70
